Ref: PubChem BioAssay (NCI)

System: 786-0 renal
Test: NCI tumour cell line growth inhibition, 48 h
Readings of GI50 for the listed molecules

Example entries begin here.
[[record]]
smiles_str = "COc1cc2c(c(OC)c1OC)-c1c(c3ccc([N+](=O)[O-])cc3c(=O)n1CCCBr)C2=O"
reported_measurement = "35.1 µM"

[[record]]
smiles_str = "CCOC(=O)c1c2c(n3ccc(NC(=O)CCN4CCCCC4)cc13)C(=O)c1ncccc1C2=O"
reported_measurement = "0.124 µM"

[[record]]
smiles_str = "CC(=O)[CH-]C(C)=O.CC(=O)[CH-]C(C)=O.[Cl-].[O]=[V]"
reported_measurement = "20 µM"

[[record]]
smiles_str = "CCCS(=O)(=O)Nc1cccc(Nc2ncnc3cc(NC(=O)CCl)ccc23)c1Cl"
reported_measurement = "0.935 µM"


Read the next record carefully.
For the molecule C1C[OH+]CCNCC[OH+]CC[OH+]CCN1.N.[Cl-].[Pt+4] , what GI50 is on record?
> 100 µM

----------
Tested on: EKVX NSCLC
Test: NCI tumour cell line growth inhibition, 48 h; in the data active = GI50 below about 0.43 µM; inactive = the rest
Tick one outcome: YES = active, NO = inactive

Please review the following examples before continuing.
[[record]]
compound = "CCCCc1n(Cc2ccc3ccccc3n2)cc[n+]1Cc1ccc2ccccc2n1"
classification = "NO"

[[record]]
compound = "COc1ccc(C2CC(c3ccc(OC)cc3O)=NN2c2ccc(S(N)(=O)=O)cc2)cc1 (stereo unspecified)"
classification = "NO"

[[record]]
compound = "FC(F)(F)c1cc(NC(=S)N2c3ccccc3-n3cccc3C2c2cccnc2)cc(C(F)(F)F)c1 (stereo unspecified)"
classification = "NO"

[[record]]
compound = "CC(C)=Cc1cccc2[nH]c(O)c(N=Nc3ccc(S(N)(=O)=O)cc3)c12"
classification = "NO"

[[record]]
compound = "COC(=O)C1=C(C(=O)ON)[C@@H]2C=C[C@@]1([C@@H](Cc1ccccc1)Nc1ccccc1)O2"
classification = "NO"


Answer briefly: the call reported for CCN(CCO)CCCC(C)Nc1ccnc2cc(Cl)ccc12 (stereo unspecified) in this assay.
NO

Answer briefly: the call reported for O=C(c1ccccc1)C1OC1C(=O)c1ccccc1 (stereo unspecified) in this assay.
NO

Answer briefly: the call reported for O=[N+]([O-])c1ccc(N=Nc2c(Cl)cc(O)cc2Cl)cc1 in this assay.
NO

----------
Test system: SW-620 colon
Test: NCI tumour cell line growth inhibition, 48 h; in the data active means GI50 below about 0.43 µM; inactive means the rest
Tick one outcome: active, inactive

Please review the following examples before continuing.
[[record]]
compound = "[Co].[O-]c1cccnc1C=Nc1ccccc1.[OH3+]"
assay_target = "SW-620 colon"
classification = "inactive"

[[record]]
compound = "COc1ccc2nc3c(cc2c1)C(=O)CC(c1ccccc1)C3 (stereo unspecified)"
assay_target = "SW-620 colon"
classification = "inactive"

[[record]]
compound = "O=C(CCCC(=O)N/N=C/c1cc(Cl)ccc1O)N/N=C\\c1cc(Cl)ccc1O"
assay_target = "SW-620 colon"
classification = "inactive"

[[record]]
compound = "O=c1cc(-c2ccccc2)oc2c1ccc1ccccc12"
assay_target = "SW-620 colon"
classification = "inactive"

[[record]]
compound = "CCCS(=O)(=O)Nc1cccc(Nc2ncnc3cc(NC(=O)CCl)ccc23)c1Cl"
assay_target = "SW-620 colon"
classification = "inactive"


Answer briefly: the call reported for COc1ccc(C2=NN(C(C)=O)C(c3ccc(Oc4ccnc5cc(Cl)ccc45)c(OC)c3)C2)cc1 (stereo unspecified) in this assay.
inactive

----------
Readings of TGI for the listed compounds
System: HS 578T breast
Test: NCI tumour cell line growth inhibition, 48 h

[[record]]
compound = "CC[C@]12C=CCN3CC[C@@]4(c5ccc(OC)cc5N(C)[C@H]4[C@@](O)(C(=O)OC)[C@@H]1OC(=O)CCC(=O)O[C@H]1CC[C@H]4[C@@H]5CC[C@H]6CC(=O)CC[C@]6(C)[C@H]5CC[C@]14C)[C@@H]32"
reported_measurement = "> 100 µM"

[[record]]
compound = "CC(=O)C1C(=O)C(C(C)=O)C2C3C=CC(C3)C12 (stereo unspecified)"
reported_measurement = "> 100 µM"

[[record]]
compound = "O=C(O)c1ccccc1/C=C1/Cc2ccc3c(c2C1=O)CCC3"
reported_measurement = "> 100 µM"

[[record]]
compound = "COc1ccc2nc3cc([N+](=O)[O-])ccc3c(Nc3ccc(S(=O)(=O)Nc4ncccn4)cc3)c2c1"
reported_measurement = "92.4 µM"

[[record]]
compound = "COC(=O)C1=C(C(=O)ON)[C@@H]2C=C[C@@]1([C@@H](Cc1ccccc1)Nc1ccccc1)O2"
reported_measurement = "68.7 µM"


Record CC1=C[C@H]([C@H]2C=C(C)C(C(N)=O)=CN2Cc2c(Cl)cccc2Cl)N(Cc2c(Cl)cccc2Cl)C=C1C(N)=O : what is its TGI with HS 578T breast?
> 75 µM

----------
Tested on: A549 NSCLC
Test: NCI tumour cell line growth inhibition, 48 h; in the data active means GI50 below about 0.43 µM; inactive means the rest
Tick one outcome: active, inactive

Please review the following examples before continuing.
[[record]]
compound = "COc1cc2c(cc1O)c(=O)n(CCN(C)C)c1c3cc4c(cc3ncc21)OCO4"
assay_target = "A549 NSCLC"
classification = "active"

[[record]]
compound = "COC(=O)C1=C(C(=O)ON)[C@@H]2C=C[C@@]1([C@@H](Cc1ccccc1)Nc1ccccc1)O2"
assay_target = "A549 NSCLC"
classification = "inactive"


Answer briefly: the call reported for Fc1ccc(-c2ncn(CCCN3CCOCC3)c2-c2ccncc2)cc1 in this assay.
inactive

Answer briefly: the call reported for C#CCOC(=O)/C=C/C(=O)Oc1ccc2c(C)cc(=O)oc2c1 in this assay.
inactive

Answer briefly: the call reported for CC(C)=Cc1cccc2[nH]c(O)c(N=Nc3ccc(S(N)(=O)=O)cc3)c12 in this assay.
inactive

Answer briefly: the call reported for COc1cc(NS(C)(=O)=O)ccc1Cc1c2ccccc2nc2ccccc12 in this assay.
active

Answer briefly: the call reported for COc1ccc2c(c1)C(=O)c1c-2c(N2CCN(C(=O)CCNCCNCCN)CC2)nc2ccccc12 in this assay.
inactive

Answer briefly: the call reported for COc1cc2c3c(n(CCCn4cncn4)c(=O)c2cc1OC)-c1cc2c(cc1C3=O)OCO2 in this assay.
inactive

Answer briefly: the call reported for CC(C)CCCCCCCCCCCCC(=O)NCC(=O)NC1C(C)OC(Nc2ncnc3nc[nH]c23)C(O)C1O (centres undefined) in this assay.
active

----------
Tested on: CCRF-CEM leukemia
Test: NCI tumour cell line growth inhibition, 48 h
Experimental Readout: TGI

Example entries begin here.
[[record]]
molecule = "Cc1nc2ccccc2c(/C=C/c2ccccc2)c1C(=O)/C=C/c1ccc(C(F)(F)F)cc1"
reported_measurement = "> 100 µM"

[[record]]
molecule = "CN(/N=C/c1ccccc1O)c1ccc2ccccc2n1"
reported_measurement = "> 100 µM"

[[record]]
molecule = "NNc1nc2ccccc2o1"
reported_measurement = "> 100 µM"


For the molecule CC(C)=NOC(=O)OC[C@H]1O[C@@H](n2cnc3c(N)ncnc32)C(O)C1O (some centres not stated) , what TGI is on record?
> 100 µM

For the molecule COc1ccccc1NC(=O)C1=C(C)NC(C)=C(C(=O)Nc2ccccc2OC)C1c1ccccc1Cl , what TGI is on record?
> 100 µM

For the molecule COc1ccc(N/N=C/C2=CC(C)(C)C(C#N)(C#N)C(O)=C2C#N)cc1 , what TGI is on record?
> 100 µM

----------
Test system: MALME-3M melanoma
Test: NCI tumour cell line growth inhibition, 48 h; in the data active means GI50 below about 0.43 µM; inactive means the rest
Tick one outcome: label 1 (active), label 0 (inactive)

Answer briefly: the call reported for COC(=O)C1=C(C(=O)ON)[C@@H]2C=C[C@@]1([C@@H](Cc1ccccc1)Nc1ccccc1)O2 in this assay.
label 0

Answer briefly: the call reported for CC[C@H]1CCC/C=C/[C@@H]2C[C@H](O)C[C@H]2[C@H](O)/C=C/C(=O)O1 in this assay.
label 1

Answer briefly: the call reported for C#CCOC(=O)/C=C/C(=O)Oc1ccc2c(C)cc(=O)oc2c1 in this assay.
label 0

Answer briefly: the call reported for Cc1nc2ccccc2c(/C=C/c2ccccc2)c1C(=O)/C=C/c1ccc(C(F)(F)F)cc1 in this assay.
label 0

Answer briefly: the call reported for S=C1SCN(Cc2ccccc2)CN1Cc1ccccc1 in this assay.
label 0

Answer briefly: the call reported for CCN(CCO)CCCC(C)Nc1ccnc2cc(Cl)ccc12 (stereo unspecified) in this assay.
label 0

----------
Readings of TGI for the listed compounds
Test system: OVCAR-3 ovarian
Test: NCI tumour cell line growth inhibition, 48 h
Write the number in µM without appending the unit.

Example entries begin here.
[[record]]
smiles_str = "O=C(O)c1ccccc1/C=C1/Cc2ccc3c(c2C1=O)CCC3"
experimental_readout = "TGI"
reported_measurement = 95.2

[[record]]
smiles_str = "O=C1/C(=C/c2ccc(F)cc2)CN(C(=O)C(Cl)Cl)C/C1=C\\c1ccc(F)cc1"
experimental_readout = "TGI"
reported_measurement = 0.778

[[record]]
smiles_str = "CCCS(=O)(=O)Nc1cccc(Nc2ncnc3cc(NC(=O)CCl)ccc23)c1Cl"
experimental_readout = "TGI"
reported_measurement = 6.62

[[record]]
smiles_str = "CCOC(=O)c1c2c(n3ccc(NC(=O)CCN4CCCCC4)cc13)C(=O)c1ncccc1C2=O"
experimental_readout = "TGI"
reported_measurement = 2.64

[[record]]
smiles_str = "O=C1c2ccccc2C(=O)c2c1oc1c2c(=O)[nH]c2ccc(Cl)cc21"
experimental_readout = "TGI"
reported_measurement = 0.557

[[record]]
smiles_str = "Cc1ccc2[nH]c(O)c(N=Nc3ccccc3[N+](=O)[O-])c2c1"
experimental_readout = "TGI"
reported_measurement = 99.6

[[record]]
smiles_str = "N#CC1(C#N)[C@@H]2CCC=C(Sc3ccccc3)[C@@H]21"
experimental_readout = "TGI"
reported_measurement = 31.1


For the compound O=c1[nH]nc(CNc2ccc(Cl)cc2Cl)c2ccccc12 , what TGI is on record?
40.3
